The reported numbers originate from patent US20210070747A1.

MIC reference
system: E. Coli ATCC 25922

{"smilesStr": "CNc1cc(F)cc2c(O)c(C(=O)Nc3ccc(C(=O)O)cc3CN3CCCCC3)c(=O)[nH]c12.O=C(O)C(F)(F)F", "targetEntity": "E. Coli ATCC 25922", "observed": "8 µg/mL"}
{"smilesStr": "CNc1cc(F)cc2cc(C(=O)NCCc3cccnc3)c(=O)[nH]c12", "targetEntity": "E. Coli ATCC 25922", "observed": "> 8 µg/mL"}

So what's the measured MIC for this one? CNc1cc(F)cc2cc(C(=O)Nc3cnc(OCCN4CCOCC4)nc3)c(=O)[nH]c12
> 16 µg/mL

So what's the measured MIC for this one? CNc1cc(F)cc2cc(C(=O)Nc3ccc(C(=O)O)cc3CN(C)C3CCN(C)CC3)c(=O)[nH]c12.Cl
> 16 µg/mL
